- protocol summary: Cytotoxicity against mouse RAW264.7 cells assessed as cell survival at 50 uM
- Format: cell-based
- settings: read-out: Activity
quantity measured: viability at 50 µM (%)
Could you give me the number in %? Just the number is fine.

Ask: Entry C=C[C@]1(C)C=C2CC[C@H]3C(C)(C)CC[C@H](O)[C@]3(C)[C@H]2[C@H](O)C1 has what viability at 50 µM?
Reply: 35.9

Ask: Entry C=C[C@]1(C)C=C2CC[C@H]3C(C)(C)C[C@H](O)[C@H](O)[C@]3(C)[C@H]2CC1 has what viability at 50 µM?
Reply: 70.6

Ask: Entry C=C[C@]1(C)C=C2C(=O)C[C@H]3C(C)(C)CC[C@H](O)[C@]3(C)[C@H]2CC1 has what viability at 50 µM?
Reply: 86.8

Ask: Entry C=C[C@]1(C)C=C2[C@@H](OC(C)=O)[C@@H](O)[C@H]3C(C)(C)CCC[C@]3(C)[C@@]2(O)CC1 has what viability at 50 µM?
Reply: 85.7

Ask: Entry C=C[C@]1(C)C=C2C[C@@H](O)[C@H]3C(C)(C)CCC[C@]3(C)[C@@]2(OC)CC1 has what viability at 50 µM?
Reply: 110

Ask: Entry C=C[C@]1(C)C=C2[C@H](O)C[C@H]3C(C)(C)CCC[C@]3(C)[C@H]2CC1 has what viability at 50 µM?
Reply: 58.8

Ask: Entry C=C[C@]1(C)C=C2C[C@@H](O)[C@H]3C(C)(C)CC[C@H](OC(C)=O)[C@]3(C)[C@H]2CC1 has what viability at 50 µM?
Reply: 60.3

Ask: Entry C=C[C@]1(C)C=C2C[C@@H](O)[C@H]3C(C)(C)CC[C@H](O)[C@]3(C)[C@H]2CC1 has what viability at 50 µM?
Reply: 52.2

Ask: Entry C=C[C@]1(C)C=C2CC[C@H]3C(C)(C)CC[C@H](O)[C@]3(C)[C@H]2CC1 has what viability at 50 µM?
Reply: 67.6

Ask: Entry C=C[C@]1(C)C=C2[C@@H](O)C[C@H]3C(C)(C)CCC[C@]3(C)[C@@]2(O)CC1 has what viability at 50 µM?
Reply: 73.3

Ask: Entry C=C[C@]1(C)C=C2C[C@@H](O)[C@H]3C(C)(C)CCC[C@]3(C)[C@H]2CC1 has what viability at 50 µM?
Reply: 109

Ask: Entry C=C[C@]1(C)C=C2C[C@@H](OC(C)=O)[C@H]3C(C)(C)CCC[C@]3(C)[C@@]2(O)CC1 has what viability at 50 µM?
Reply: 68.8

Ask: Entry C=C[C@]1(C)C=C2C(=O)C[C@H]3C(C)(C)CCC[C@]3(C)[C@@]2(O)CC1 has what viability at 50 µM?
Reply: 50.7

Ask: Entry C=C[C@]1(C)C=C2C[C@@H](O)[C@H]3C(C)(C)[C@H](O)C[C@H](O)[C@]3(C)[C@H]2CC1 has what viability at 50 µM?
Reply: 89.4

Ask: Entry CNC(=N)NCCC[C@H](N)C(=O)O [TILARGININE ACETATE] has what viability at 50 µM?
Reply: 107

Ask: Entry C=C[C@]1(C)C=C2[C@H](OC(C)=O)C[C@H]3C(C)(C)CCC[C@]3(C)[C@@]2(O)CC1 has what viability at 50 µM?
Reply: 88.7

Ask: Entry C=C[C@]1(C)C=C2[C@@H](O)[C@@H](O)[C@H]3C(C)(C)CCC[C@]3(C)[C@@]2(O)CC1 has what viability at 50 µM?
Reply: 60.2

Ask: Entry C=C[C@]1(C)C=C2[C@H](OC(C)=O)[C@@H](O)[C@H]3C(C)(C)CCC[C@]3(C)[C@H]2CC1 has what viability at 50 µM?
Reply: 6.17

Ask: Entry C=C[C@@]1(C)C=C2CC[C@@H]3C(C)(C)C[C@@H](O)C[C@@]3(C)[C@@H]2CC1 has what viability at 50 µM?
Reply: 114

Ask: Entry C=C[C@]1(C)C=C2CC[C@H]3C(C)(C)C[C@H](O)[C@H](O)[C@]3(C)[C@@]2(O)CC1 has what viability at 50 µM?
Reply: 27.5

Ask: Entry C=C[C@]1(C)C=C2CC[C@H]3C(C)(C)[C@H](O)C[C@H](O)[C@]3(C)[C@H]2CC1 has what viability at 50 µM?
Reply: 50

Ask: Entry C=C[C@]1(C)C=C2CC[C@H]3C(C)(C)C[C@H](O)[C@H](O)[C@]3(C)[C@H]2[C@H](O)C1 has what viability at 50 µM?
Reply: 60.9
